- System Under Test: Glucagon-like peptide 1 receptor (Homo sapiens, UniProt P43220)
- Sequence (P43220 whole entry): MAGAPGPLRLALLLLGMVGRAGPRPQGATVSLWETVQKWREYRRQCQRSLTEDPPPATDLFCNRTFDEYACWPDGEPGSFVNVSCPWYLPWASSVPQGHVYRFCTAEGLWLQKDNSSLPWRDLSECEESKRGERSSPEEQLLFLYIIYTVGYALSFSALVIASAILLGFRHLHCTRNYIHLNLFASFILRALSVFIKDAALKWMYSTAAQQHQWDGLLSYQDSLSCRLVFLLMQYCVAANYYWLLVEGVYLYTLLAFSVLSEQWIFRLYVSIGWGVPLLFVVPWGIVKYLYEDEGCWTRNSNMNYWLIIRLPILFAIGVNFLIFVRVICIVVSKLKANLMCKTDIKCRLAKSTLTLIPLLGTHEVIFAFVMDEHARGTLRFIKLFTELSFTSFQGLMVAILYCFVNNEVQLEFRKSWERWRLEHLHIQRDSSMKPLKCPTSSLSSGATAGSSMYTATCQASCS
- Method: Positive allosteric modulation of human recombinant GLP1 receptor expressed in 9-3-H cells by calcium mobilization assay in presence of EC20 of GLP1
- Type: functional, cell-based
pEC50: −log10 of the molar value.

Test Smiles: CC(C)N1CCC[C@H]1CNC(=O)c1cn(C2CCCC2)c(=O)c2c1c1ccccc1n2C
pEC50: 5.74

====

pIC50: −log10 of the molar value.
Record set of pIC50 for target or system Cytochrome P450 1A2 (Homo sapiens).
Property Name: pIC50

Test Smiles: CCN1CCC[C@H]1CNC(=O)c1cn(C2CCCC2)c(=O)c2c1c1ccccc1n2C
System Under Test: Cytochrome P450 1A2 (Homo sapiens)
Sequence (P05177 whole entry): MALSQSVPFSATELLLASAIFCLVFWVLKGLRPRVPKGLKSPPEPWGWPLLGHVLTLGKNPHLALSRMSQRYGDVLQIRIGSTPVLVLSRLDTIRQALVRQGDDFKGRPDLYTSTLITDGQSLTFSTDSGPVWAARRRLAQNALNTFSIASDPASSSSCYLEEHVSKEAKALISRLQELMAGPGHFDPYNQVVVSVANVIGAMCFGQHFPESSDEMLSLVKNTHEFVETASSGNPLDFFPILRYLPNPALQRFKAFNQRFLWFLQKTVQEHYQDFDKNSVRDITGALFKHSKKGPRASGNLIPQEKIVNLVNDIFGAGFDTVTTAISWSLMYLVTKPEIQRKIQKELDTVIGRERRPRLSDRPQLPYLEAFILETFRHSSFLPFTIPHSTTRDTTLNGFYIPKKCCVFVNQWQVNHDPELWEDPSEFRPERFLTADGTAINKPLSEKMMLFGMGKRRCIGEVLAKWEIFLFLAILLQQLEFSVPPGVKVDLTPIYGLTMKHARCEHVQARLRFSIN
Experimental Value: < 4.70
--
Test Smiles: CC(C)N1CCC[C@H]1CNC(=O)c1cn(C2CCCC2)c(=O)c2c1c1ccccc1n2C
System Under Test: Cytochrome P450 1A2 (Homo sapiens)
Experimental Value: < 4.52

These data points were gathered from ChEMBL document CHEMBL3351313.
